- Assay Explanation: Clinical test in humans, three 30-min i.v. infusions 8 hours apart, plasma PK
- Format: in vivo
- Assay Setup: human, in vivo, iv, 50 ug/kg, three 30-min i.v. infusions 8 h apart, 50 μg/kg each, mean, read-out: Cmax3
Ends that are not written are not given here.
Assay Readout: Cmax (ng/mL)
The reply should contain only the number, in ng/mL.

Cmax for AMVSEFLKQAWFIENEEQEYVQTLKSSKGGPGSAVSPYPTFNPSSDV-NH2 [Peptide 1] is 398

###

- Assay Explanation: Clinical test in humans, three 30-min i.v. infusions 8 hours apart, plasma PK
- Assay type: in vivo
- Assay Setup: human, in vivo, iv, 200 ug/kg, three 30-min i.v. infusions 8 h apart, 200 μg/kg each, GM, after the last infusion
- Experimental: A total of 8 subjects were included in each group. In each group, 6 subjects received the active treatment and 2 received the placebo. […] Plasma samples were analyzed for Peptide 1 using validated Liquid chromatography—Tandem Mass spectrometry (LC-MS/MS) methods by Charles River Laboratories (CRL). […]
Ends that are not written are not given here.
Assay Readout: half-life (h)
The reply should contain only the number, in h.

half-life for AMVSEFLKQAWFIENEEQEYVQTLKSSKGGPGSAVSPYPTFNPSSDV-NH2 [Peptide 1] is 1.93
